# Tested on: 323965-272-R-J2-PDC complex spheroid viability;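 note: spheroids exposed to agents for seven days before readout; percent of DMSO vehicle control wells so 100% = untreated growth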
# Protocol summary: Anticancer human tumor 323965-272-R-J2-PDC patient-derived pancreatic carcinoma cell line growth inhibition [CLK]; active = viability on the fitted dose curve at most 10% of control; inactive = the rest
# Test conditions: second compound 3.16 µM; first compound 0.316 µM
Could you please pick one outcome from this set? yes (1) = active, no (0) = inactive

Asked: For CC(Nc1ccc2c(c1)OCCn1cc(N3C(=O)OCC3C(F)F)nc1-2)C(N)=O (stereo not drawn) + CNC(=O)c1ccc(Nc2nc(OC3CCCC3)c3c(-c4ccc5nc(C)oc5c4)c[nH]c3n2)c(OC)c1 , which call appears in the assay record?
Given back: no (0)

Asked: Hi, sorry to bother you, what did the test record for Nc1ccccc1NC(=O)c1ccc(CNC(=O)OCc2cccnc2)cc1 + CN1CCN(c2cc(C(=O)Nc3cc4cc(-c5cnn(C)c5)ccc4cn3)ccn2)CC1 ?
Given back: yes (1)

Asked: Answer briefly: the call reported for C=CC(=O)N1CCN(c2nc(=O)n(-c3c(C)ccnc3C(C)C)c3nc(-c4c(O)cccc4F)c(F)cc23)C(C)C1 (stereo not drawn) + CN1CCN(c2cc(C(=O)Nc3cc4cc(-c5cnn(C)c5)ccc4cn3)ccn2)CC1 in this assay.
Given back: yes (1)
